Recorded values, source the Deep4Chem optical property database.

Assay: solvent given as SMILES
Details: in C1CCOC1
Assignment: determine reported absorption maximum for the given compounds.
Give bare numbers, in nm.

Record absorption maximum per entry; entries follow.
1. Cc1ccc(-c2ccc(-c3ccc(C)cc3)c(/C(=C(/c3ccccc3)c3cc(-c4ccc(C)cc4)ccc3-c3ccc(C)cc3)c3ccccc3)c2)cc1
2. COc1ccc(-c2cc(C)nc(-c3ccc(-n4c5ccccc5c5ccccc54)cc3)n2)cc1
3. CC(C)(C)c1ccc(-c2c(-c3cccc(N(c4ccccc4)c4ccccc4)c3)c(C#N)c(-c3cccc(N(c4ccccc4)c4ccccc4)c3)c(-c3ccc(C(C)(C)C)cc3)c2-c2ccc(C(C)(C)C)cc2)cc1

Result:
1. 282
2. 339
3. 297

For each of the items listed, what is its absorption maximum?
1. Oc1ccc(C2=N[N+]3=Cc4c(ccc5ccccc45)O[B-]3(c3ccc([B-]45OC(c6ccc(O)cc6)=N[N+]4=Cc4c(ccc6ccccc46)O5)cc3)O2)cc1 (stereo not given)
2. CC(C)(C)c1ccc(C2=C(c3ccc(C(C)(C)C)cc3)[Si](c3ccccc3)(c3ccccc3)c3ccccc32)cc1

Result:
1. 424
2. 341

---

Kindly state absorption maximum for each of the entries shown.
Experiment: solvent given as SMILES
Conditions: in CO
Answers are plain numbers, in nm.

Known absorption maximum results, listed for orientation:
1. CCCCCCCC1=C(C)C(=O)n2c1cc1[nH]c(C(=O)OC)c(C)c1c2=O :: 397
2. CN(C)c1ccc(/C=C2\CCCC2=O)cc1 :: 391
3. Cc1ccc(O)c(-c2[nH]c(=O)n3c2-c2ccccc2C3=O)c1 :: 399
4. CCN(CC)c1cccc2c1ccc1c(=O)oc(-c3ccc(C(F)(F)F)cc3)cc12 :: 391

Batch request: absorption maximum for each of the following compounds.
1. CCOC(=O)CCCn1c(C(=O)OC)c(C)c2c(=O)n3c(cc21)C(CC)=C(C)C3=O
2. O=c1oc2c(ccc3ccccc32)nc1-c1ccccc1

Result:
[397, 396]

---

Experiment: solvent given as SMILES
Settings: in CC#N
property: absorption maximum (nm)
Numbers only, in nm.

# example entries with known answers
1) CC1(C)CC(/C=C/c2ccc(-n3c4ccccc4c4ccccc43)cc2)=CC(=C(C#N)C#N)C1 :: 405
2) C(=C\c1ccncn1)/c1ccc(N(c2ccccc2)c2ccccc2)cc1 :: 394

Report absorption maximum for each item below.
1. Nc1cccc2cccc(N)c12
2. CCN(CC)c1ccc2cc(-c3cc(SC)c(C#N)c(=O)o3)c(=O)oc2c1
3. CC(C)(C)c1ccc2c(c1)sc1[n+]2[B-](F)(F)n2c(c3cccc4c(Br)ccc2c43)=C1C#N
4. CN(C)c1ccc(C=C2Oc3cccc(O)c3C2=O)cc1
5. CCOC(=O)CN1C(=O)C2=C(c3ccc(N4CCCCC4)cc3)N(CC(=O)OCC)C(=O)C2=C1c1ccccc1
6. COc1ccc2c3c([nH]c2c1)C(C)=NCC3

Result:
1: 349; 2: 514; 3: 532; 4: 449; 5: 500; 6: 328

// input: 4 compounds below; output: absorption maximum for each
1. CCC1=C(C)C2=C(c3c4ccccc4c(C)c4ccccc34)c3c(C)c(CC)c(C)n3[B-](F)(F)[N+]2=C1C
2. CC(C)(C)c1ccc2c(c1)c1cc(C(C)(C)C)ccc1n2-c1ccc(C#Cc2cccc(C#Cc3ccc(-n4c5ccc(C(C)(C)C)cc5c5cc(C(C)(C)C)ccc54)cc3)c2)cc1
3. Cc1ccc(-c2ccc(/C=C/c3ccc(Cl)cc3)cn2)nc1
4. O=C1O[B-]2(OC1=O)OC(c1ccccc1)=CC(c1ccccc1)=[O+]2

Result:
1: 527; 2: 340; 3: 337; 4: 384

Task: Which measured absorption maximum value corresponds to c1ccc2c(c1)c1ccccc1c1[nH]c(-c3ccc(-c4nc5c6ccccc6c6ccccc6c5[nH]4)cc3)nc21 ?
Result: 412
